Molecular target: SHP2 (Homo sapiens (Human))
Assay: SHP2 Biochemical Assay (DiFMUP conversion, pIRS1-activated)
Details: Table 20
pIC50: −log10 of the molar value. Where a name gives a salt, the structure may show the parent alone.
Short version: pIC50 at least 8 is T, less is F.

molecule=Cn1nc2ccc(-c3c[nH]c4nc(N5[C@H]6CC[C@@H]5[C@@H](F)[C@@H](N)C6)n(C)c(=O)c34)c(Cl)c2c1Cl measurement_target="SHP2 (Homo sapiens (Human))" assigned_category=T
molecule=COc1cnc2ccc(-c3c[nH]c4nc(N5[C@H]6CC[C@@H]5[C@H](N)C6)n(C)c(=O)c34)c(Cl)c2n1 measurement_target="SHP2 (Homo sapiens (Human))" assigned_category=T
molecule=CN[C@H]1C[C@H]2CC[C@@H]1N2c1nc2[nH]cc(-c3ccc4nn(C)cc4c3Cl)c2c(=O)n1C measurement_target="SHP2 (Homo sapiens (Human))" assigned_category=F
molecule="CCn1cc2ccc(-c3c[nH]c4nc(N5CCC6(CC5)COC[C@H]6N)n(C)c(=O)c34)cc2n1 [Example 183, hydrochloride]" measurement_target="SHP2 (Homo sapiens (Human))" assigned_category=F
molecule=CN(C)c1cnc2ccc(-c3c[nH]c4nc(N5[C@H]6CC[C@@H]5[C@H](N)C6)n(C)c(=O)c34)c(Cl)c2n1 measurement_target="SHP2 (Homo sapiens (Human))" assigned_category=T

Hi, just wondering whether CCn1cc2ccc(-c3c[nH]c4nc(N5CCC6(CC5)COC[C@H]6N)n(C)c(=O)c34)c(F)c2n1 [Example 184, hydrochloride] shows pIC50 of 8 or higher.
F

Hi, just wondering whether COCCn1cc2c(Cl)c(-c3c[nH]c4nc(N5[C@H]6CC[C@@H]5[C@H](N)C6)n(C)c(=O)c34)ccc2n1 shows pIC50 of 8 or higher.
T

Hi, just wondering whether Cn1nc2ccc(-c3c[nH]c4nc(N5C[C@H]6CC[C@@H]5[C@@H]6N)n(C)c(=O)c34)c(F)c2c1Cl shows pIC50 of 8 or higher.
T

Hi, just wondering whether CCn1cc2c(Cl)c(-c3c[nH]c4nc(N5CC6CNCC5C6)n(C)c(=O)c34)ccc2n1 (single isomer, unassigned) [Example 193, hydrochloride] shows pIC50 of 8 or higher.
F

Hi, just wondering whether Cn1cc2c(Cl)c(-c3c[nH]c4nc(N5[C@@H]6CC[C@H]5C[C@](N)(C(F)F)C6)n(C)c(=O)c34)ccc2n1 [Example 185, hydrochloride] shows pIC50 of 8 or higher.
F

---

IC50 overview
Molecular target: SHP2 (Homo sapiens (Human), UniProt Q06124)
Sequence (Q06124 whole entry): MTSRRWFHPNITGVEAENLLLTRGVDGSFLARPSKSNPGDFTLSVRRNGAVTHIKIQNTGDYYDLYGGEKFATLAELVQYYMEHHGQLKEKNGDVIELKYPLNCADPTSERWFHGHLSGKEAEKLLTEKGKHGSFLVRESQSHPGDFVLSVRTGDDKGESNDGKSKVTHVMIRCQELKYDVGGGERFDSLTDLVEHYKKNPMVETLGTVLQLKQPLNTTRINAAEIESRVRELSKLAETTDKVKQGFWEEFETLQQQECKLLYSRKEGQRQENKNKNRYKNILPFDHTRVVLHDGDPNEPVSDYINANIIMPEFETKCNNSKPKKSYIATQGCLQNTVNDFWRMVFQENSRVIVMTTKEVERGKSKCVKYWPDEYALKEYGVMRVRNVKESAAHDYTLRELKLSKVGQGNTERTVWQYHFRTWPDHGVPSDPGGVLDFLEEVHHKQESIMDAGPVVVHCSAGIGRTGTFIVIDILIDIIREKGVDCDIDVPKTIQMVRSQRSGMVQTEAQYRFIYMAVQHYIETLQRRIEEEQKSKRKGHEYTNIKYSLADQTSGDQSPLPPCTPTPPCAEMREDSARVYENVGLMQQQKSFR
Assay: SHP2 Biochemical Assay (DiFMUP conversion, pIRS1-activated)
Settings: Table 19; head prints unit as "-M"
# number only, unit nM dropped from output

Examples with answers:
molecule=Cn1cc2c(Cl)c(-c3c[nH]c4nc(N5CCC6(CCN6)CC5)n(C)c(=O)c34)ccc2n1 measurement_target="SHP2 (Homo sapiens (Human), UniProt Q06124)" unit_abbreviation=nM readout_value=78
molecule=Cn1cc2c(Cl)c(-c3c[nH]c4nc(N5CCNCC5)n(C)c(=O)c34)ccc2n1 measurement_target="SHP2 (Homo sapiens (Human), UniProt Q06124)" unit_abbreviation=nM readout_value=66

Could you tell me which IC50 is on file for CN[C@@H]1C[C@@H]2CC[C@H]1N2c1nc2[nH]nc(-c3ccc4ncsc4c3Cl)c2c(=O)n1C ?
18
